Hello, the source for this data is patent US8969542B2, in case you need it.

- subject of test: DRB1*1302 (DR6w19) (Homo sapiens, UniProt P01903+P01911, A100E/A169T/K41T/L162R/M171V/P40S/Q125H/Q178H/Q39Y/Q99D/R42S/S66N/T262R/V115G/W38E/Y61H)
- method summary: biochemical
Where no end group is shown, it is not given here.
assay readout: IC50

Task: Recorded IC50 for WKHMRLECAIYYKAR [compound 91] , please?
Result: 248 nM

----------
Property: IC50; scope: individual sequences
- subject of test: HLA A2902 (Homo sapiens, UniProt P04439, A270S/D101N/D185E/E176V/E277Q/E87Q/F33T/G231S/H175R/I121M/I218V/I322F/K168Q/L300P/L318F/M331R/P208A/P217A/Q86L/T323A/T345S/V100A/V358M)
- method summary: HLA class I competition binding assay using soluble HLA
Where no end group is shown, it is not given here.
Number only, in µM; omit the unit.

These solved cases illustrate the format of a correct answer.
Task: Report IC50 for YYMTDAGTW [compound 40] please.
Result: 3.41

Task: Could you tell me which IC50 is on file for PYLHSRLVVF [compound 61] ?
Result: 4.37

Task: Fill in the blank: the reported IC50 of FYSKVSEFRW [compound 65] is ____.
Result: 1.78

Task: Sample VYVCAFAWLL [compound 86] — what was its IC50?
Result: 2.35

Task: # IC50 lookup, item VYVFCFLLPM [compound 43]
Result: 5.28

Task: Consider the sequence HYTNWKFIF [compound 63] and give its measured IC50.
Result: 0.433

Further cases:
Task: Using the record for VFTFPNPFPF [compound 62] , report its IC50.
Result: 0.603

Task: // returns reported IC50 for input VVFIYIPLF [compound 64]
Result: 0.302

Task: Which value of IC50 has been reported for VFTFPHAFPF [compound 84] in the records?
Result: 0.057
